Target: SCRIB_2, Q14160
Sequence (Q14160 857-960): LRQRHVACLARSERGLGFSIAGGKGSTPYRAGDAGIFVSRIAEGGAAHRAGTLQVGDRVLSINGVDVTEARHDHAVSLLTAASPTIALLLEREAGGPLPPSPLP
Test: holdup assay
Design: key: below the threshold = too weak to quantify, mostly under pKd 3.1 to 4
Conditions: plain residues with an end cap or a label only (N-terminal biotin on a linker: ado-ado)
REPORTED_PROPERTY: pKd

Observe how each entry below is paired with its result.
>>> print(df.to_string())
                         binder       endpoint_value
0  NISARRFTLC [FAM167B, Q9BTA0]  below the threshold
1   PLATCDETSI [SEMA4F, O95754]                 4.39
2    PALKNGQYWV [CSPG4, Q6UVK1]  below the threshold
3      SQPLLVHDDV [KIT, P10721]  below the threshold
4    KEKASTETEC [TRPM1, Q7Z4N2]                 3.52
5     RDYTQSSSSL [GRM5, P41594]  below the threshold

pKd measured on ADEMICITTL [CACNA1D, Q01668] = 3.88

pKd measured on QRYPGNQTTC [CCL24, O00175] = below the threshold

pKd measured on KPDKQEEFYA [SDC3, O75056] = below the threshold

pKd measured on GVHSNDHSVV [LPAR1, Q92633] = below the threshold

Data origin: paper PMC9482650
